All values here come from patent US20210363269A1.

Biological target: T1, mouse 129 SIRP-α (mouse (129 strain), UniProt P97797 32-150)
T1 construct: also called m129
T1 chain: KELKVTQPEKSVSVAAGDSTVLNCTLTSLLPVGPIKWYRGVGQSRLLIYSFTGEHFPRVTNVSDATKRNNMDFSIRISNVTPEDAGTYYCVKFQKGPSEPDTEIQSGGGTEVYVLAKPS
Test: SPR Koff +/-
parameter: binding result

[[record]]
binder = "antibody 164 (antibody, V domains shown, also called S164) VH: DVQLVESGGGLVRPGESLRLSCAASGFTFTNYAVTWVRQAPGEGLEWVSLISVTGTTYYADSVKGRFTISRDNSKSTLYLQMNGLRAEDTAVYYCAKVTWKNVFDYWGLGTLVTVSS VL: EIVLTQSPGTLSVSPGERATFSCRASQTVGSKLAWYQQKPGQAPRLLIYDANTRATGIPARFSGSRSGTEFTLTISSLQSEDFAVYYCQQHTDWPPYTFGGGTKVEIK"
parameter = "binding result"
observed = "no binding"

[[record]]
binder = "antibody 173 (antibody, V domains shown, also called S173) VH: DVQLVESGGGVVRPGESLRLSCAASGFAFSDHDMSWVRQGPGEGLEWVAGISLRGGVTWYADSVKGRFTISRDNSKNTLYLRLFSLRTEDTAIYYCARESWNTFFDYWGLGTLVTVSS VL: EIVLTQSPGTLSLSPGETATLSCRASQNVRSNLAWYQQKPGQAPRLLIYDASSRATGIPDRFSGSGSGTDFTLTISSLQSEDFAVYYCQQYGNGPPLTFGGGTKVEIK"
parameter = "binding result"
observed = "no binding"

